- assay-system: T1, rat APJ receptor (rat, UniProt Q9JHG3 1-377)
- T1 sequence (looked up): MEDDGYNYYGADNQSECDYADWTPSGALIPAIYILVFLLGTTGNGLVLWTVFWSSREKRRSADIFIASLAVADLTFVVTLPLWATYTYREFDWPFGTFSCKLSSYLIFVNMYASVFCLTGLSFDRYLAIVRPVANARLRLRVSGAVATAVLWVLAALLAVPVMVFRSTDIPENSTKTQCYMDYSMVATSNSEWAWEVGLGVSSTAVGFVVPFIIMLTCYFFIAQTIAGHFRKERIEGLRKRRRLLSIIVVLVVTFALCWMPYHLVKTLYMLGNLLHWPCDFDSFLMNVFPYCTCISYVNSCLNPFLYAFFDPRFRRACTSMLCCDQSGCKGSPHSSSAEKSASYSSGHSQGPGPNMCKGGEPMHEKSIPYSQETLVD
- assay-info: cell-based or functional assay
Starred links: 1 amine or outer side, 2 acyl side, 3 side chain; linkers in the order of their positions; H or OH if unused. Non-standard residues stand in square brackets, D forms with d. *: point of attachment. AC4Abu = α-carboxy-4-aminobutyric acid, O=C(C(CCN[*:1])C(=O)[*:3])[*:2]; dBip = N[C@H](Cc1ccc(-c2ccccc2)cc1)C(=O)O; Oic = O=C(O)[C@@H]1C[C@@H]2CCCC[C@@H]2N1; Phe(4-Cl) = N[C@@H](Cc1ccc(Cl)cc1)C(=O)O; NMeR = CN[C@@H](CCCNC(=N)N)C(=O)O; Palmitoyl = CCCCCCCCCCCCCCCC(=O)*; hArg = N=C(N)NCCCC[C@H](N)C(=O)O; Cha = N[C@@H](CC1CCCCC1)C(=O)O; NMeL = CN[C@@H](CC(C)C)C(=O)O; Pip = O=C(O)[C@@H]1CCCCN1; Nle = CCCC[C@H](N)C(=O)O; AEEA = NCCOCCOCC(=O)O; Aib = CC(C)(N)C(=O)O; Nip = nipecotic acid
Lab note: compare EC50 Rat APJ Receptor with 6 nM, writing criterion met if less and criterion not met if equal or more.

These solved cases illustrate the format of a correct answer.
binder	assigned-category
KLRKHNXLQRRXMPLHSRVPFP ({H2}KLRKHN[Abu]LQRR[Abu]MPLHSRVPFP{COOH}) [SEQ ID NO: 14]	criterion not met
Palmitoyl-[AC4Abu][AEEA][AEEA][dQ]RP[NMeR][Cha]SHKG[Nip][Nle][Aib][Phe(4-Cl)]-OH [SEQ ID NO: 582]	criterion not met
XXXQRPRLSHKGPXPF ({DDDA}[AC4Abu][Aeea][Aeea]QRP[NMeArg]LSHKGP[Nle]P[4-Cl-F]{COOH}) [SEQ ID NO: 510]	criterion met
XXXXQRPRLSHKGPXPF ({TDA}[AC4Abu][AC4Abu][Aeea][Aeea]QRP[NMeArg]LSHKGP[Nle]P[4-Cl-F]{COOH}) [SEQ ID NO: 399]	criterion met
Palmitoyl-[AC4Abu][AEEA][AEEA][dQ]RP[NMeR][Cha]SHKG[Pip][Nle][Nip][Phe(4-Cl)]-OH [SEQ ID NO: 588]	criterion not met

Would you kindly look at the next entry?
Lookup: In plain terms, does Ac-[hArg][dR]Q[hArg]P[dR][NMeL]SHKG[Oic]EP[dBip]-OH (SMILES CC(=O)N[C@@H](CCCCNC(=N)N)C(=O)N[C@H](CCCNC(=N)N)C(=O)N[C@@H](CCC(N)=O)C(=O)N[C@@H](CCCCNC(=N)N)C(=O)N1CCC[C@H]1C(=O)N[C@H](CCCNC(=N)N)C(=O)N(C)[C@@H](CC(C)C)C(=O)N[C@@H](CO)C(=O)N[C@@H](Cc1c[nH]cn1)C(=O)N[C@@H](CCCCN)C(=O)NCC(=O)N1[C@H](C(=O)N[C@@H](CCC(=O)O)C(=O)N2CCC[C@H]2C(=O)N[C@H](Cc2ccc(-c3ccccc3)cc2)C(=O)O)C[C@@H]2CCCC[C@@H]21) [SEQ ID NO: 86] come in under 6 nM for EC50 Rat APJ Receptor?
Found: criterion not met
